- measurement_target: Golgi-associated PDZ and coiled-coil motif-containing protein (Homo sapiens)
- measurement_notes: untagged CAL PDZ binding inhibitors, primary screen, biochemical, fluorescence polarization, HTS (AID 602252);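 note: 0% = DMSO neutral control and 100% = excess unlabeled competitor peptide PRC23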
- stated_conditions: purified CAL PDZ, TMR-peptide fluorescence polarization, 1 h; at 24.9 µM
Hit rate of the full screen: of about 300,000 compounds, about 2,700 (0.9%) were called active.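 Rule for the calls: active = mean inhibition of at least 30% with at least half of replicates also reaching 30%; inconclusive = no clear call, values can overlap the other calls; inactive = the rest.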 This is one part of a sample in which actives are shown more often than they occur.
Outcomes: active, inactive

INSERT INTO measurements (compound, group_label) VALUES
  ('Clc1ccc(C[n+]2cc(-c3ccc(Cl)cc3)n3c2CCC3)cc1', 'active'),
  ('CCOc1cc(C(=O)N(Cc2ccccc2)c2ccc(C)cc2)ccc1OCC(=O)N1CCOCC1', 'inactive'),
  ('COc1ccc(/C=C2/CCCc3ccccc3C2=O)cc1', 'inactive'),
  ('Cc1ccc(C(=O)OC(C)CN2CCOCC2)cc1 (stereo not given)', 'active'),
  ('CN(c1ccccc1)S(=O)(=O)c1cc(C(=O)N2CCN(c3ncccn3)CC2)ccc1Cl', 'inactive'),
  ('N#C/C(=C(/O)COc1cccc2ccccc12)c1nc2ccccc2[nH]1', 'inactive'),
  ('CC(C)(C)c1nnc2sc(SCC(O)=C(C#N)c3nc4ccccc4[nH]3)nn2c1=O', 'active'),
  ('O=C(Nc1nnc(-c2ccccc2)o1)c1cccc(S(=O)(=O)N2CCOCC2)c1', 'inactive'),
  ('CC(CN1CCOCC1)OC(=O)c1ccc(C(C)(C)C)cc1 (stereo not given)', 'inactive'),
  ('COc1ccc(-c2noc(CCC(=O)N3CCN(c4cccc(C)c4)CC3)n2)cc1', 'inactive');

====

- measurement_target: Golgi-associated PDZ and coiled-coil motif-containing protein (Homo sapiens) (UniProt Q9HD26)
- measurement_notes: untagged CAL PDZ binding inhibitors, primary screen, biochemical, fluorescence polarization, HTS (AID 602252);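 note: 0% = DMSO neutral control and 100% = excess unlabeled competitor peptide PRC23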
- stated_conditions: purified CAL PDZ, TMR-peptide fluorescence polarization, 1 h; at 24.9 µM
Screen size: about 300,000 compounds; about 2,700 (0.9%) were called active.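 How the source made its calls: active means mean inhibition of at least 30% with at least half of replicates also reaching 30%; inconclusive means no clear call, values can overlap the other calls; inactive means the rest.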 The sample holds actives, similar compounds and a random draw of the others, so the mix is not that of the screen.
Classes used: active, inactive

INSERT INTO assay_data (molecule, group_label) VALUES
  ('COc1ccc(CCNC(=O)c2ccc3c(c2)NC(=O)C(N2CCOCC2)S3)cc1OC (stereo not given)', 'inactive'),
  ('CC1CCCCC1NCC(=O)Nc1ccccc1C(=O)Nc1ccccc1 (stereo not given)', 'inactive'),
  ('Cn1cccc1/C=C1\SC(=O)N(CC(=O)Nc2ccc(F)cc2)C1=O', 'inactive'),
  ('COc1cccc(OCc2cc(C(=O)N3CCN(C(=O)c4ccco4)CC3)no2)c1', 'active'),
  ('COc1ccc(OCc2cc(C(=O)N3CCCC3)no2)c2ccccc12', 'inactive');

====

- measurement_target: Golgi-associated PDZ and coiled-coil motif-containing protein (Homo sapiens)
- measurement_notes: untagged CAL PDZ binding inhibitors, primary screen, biochemical, fluorescence polarization, HTS (AID 602252);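 note: 0% = DMSO neutral control and 100% = excess unlabeled competitor peptide PRC23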
- stated_conditions: purified CAL PDZ, TMR-peptide fluorescence polarization, 1 h; at 24.9 µM; hits give high values
About 2,700 (0.9%) of roughly 300,000 compounds were called active. Only a selection was taken, and actives are over-represented in it overall.
measure_name: inhibition (%)

INSERT INTO results (compound, measurement_target, measure_name, observed) VALUES
  ('CS(=O)(=O)c1sc(C(=O)NC(=S)Nc2ccc(OC(F)(F)F)cc2)c2c1C=CCC2', 'Golgi-associated PDZ and coiled-coil motif-containing protein (Homo sapiens)', 'inhibition', 106),
  ('FC(F)(F)Oc1ccc(NC(=S)NCc2ccccc2)cc1', 'Golgi-associated PDZ and coiled-coil motif-containing protein (Homo sapiens)', 'inhibition', 2.02),
  ('FC(F)(F)c1ccc(-c2cccc3c2C2CC3CCN2Cc2ccccc2)cc1 (stereo unspecified)', 'Golgi-associated PDZ and coiled-coil motif-containing protein (Homo sapiens)', 'inhibition', -2.76),
  ('COc1cc(C(=O)CCc2ccc3c(c2)OCO3)cc(OC)c1OC', 'Golgi-associated PDZ and coiled-coil motif-containing protein (Homo sapiens)', 'inhibition', -5.96),
  ('Cn1c(SCC(=O)Nc2ccc(Br)cc2F)nnc1-c1ccco1', 'Golgi-associated PDZ and coiled-coil motif-containing protein (Homo sapiens)', 'inhibition', -0.672),
  ('CCOC(=O)c1sc2nc(CSCC(=O)OCc3ccc(C(=O)OC)o3)[nH]c(=O)c2c1C', 'Golgi-associated PDZ and coiled-coil motif-containing protein (Homo sapiens)', 'inhibition', -1.2),
  ('COc1cc(OC)cc(C(=O)NCC(=O)N2CCCCCCC2)c1', 'Golgi-associated PDZ and coiled-coil motif-containing protein (Homo sapiens)', 'inhibition', 59.5),
  ('Cc1cc(C(=O)COc2ccc(Br)cc2F)c(C)n1C1CC1', 'Golgi-associated PDZ and coiled-coil motif-containing protein (Homo sapiens)', 'inhibition', -6.1),
  ('CCOC(=O)c1sc(NC(=O)c2cc(S(=O)(=O)N3CCOCC3)ccc2C)nc1C', 'Golgi-associated PDZ and coiled-coil motif-containing protein (Homo sapiens)', 'inhibition', -2.78),
  ('Cc1cc(C)cc(C(=O)NCC(=O)OCC(=O)N2CCCCC2)c1', 'Golgi-associated PDZ and coiled-coil motif-containing protein (Homo sapiens)', 'inhibition', -4.99),
  ('CCNC(=S)Nc1ccc(OC(F)(F)F)cc1', 'Golgi-associated PDZ and coiled-coil motif-containing protein (Homo sapiens)', 'inhibition', -0.766);
